Tested on: CAL-148
measurement protocol: normalised viability (% of control), CellTiter-Blue; higher = more viable cells (100 = DMSO, 0 = benzethonium chloride kill control)
condition label: incubation time: 72 h
Give normalised viability for every item shown.
Answer with a number only, understood to be in %.

Give normalised viability for the following molecule: S=P(N1CC1)(N1CC1)N1CC1 [Thio-TEPA] (10 nM)
102

Give normalised viability for the following molecule: Nc1cc(C(F)(F)F)c(-c2cc(N3CCOCC3)nc(N3CCOCC3)n2)cn1 [BKM-120] (1 nM)
105

Give normalised viability for the following molecule: C=C1C[C@@H]2[C@H](CC[C@]3(C)C(=O)CC[C@@H]23)[C@@]2(C)C=CC(=O)C=C12 [Exemestane] (1 nM)
89.2

Give normalised viability for the following molecule: CO[C@H]1C[C@@H]2CC[C@@H](C)[C@@](O)(O2)C(=O)C(=O)N2CCCC[C@H]2C(=O)O[C@H]([C@H](C)C[C@@H]2CC[C@@H](OP(C)(C)=O)[C@H](OC)C2)CC(=O)[C@H](C)/C=C(\C)[C@@H](O)[C@@H](OC)C(=O)[C@H](C)C[C@H](C)/C=C/C=C/C=C/1C [Ridaforolimus] (0.1 nM)
99.4

----------
Give normalised response for every item shown.
System: CAL-148
measurement protocol: normalised response (% of control), CellTox Green; higher = less cell death (100 = DMSO, 0 = benzethonium chloride kill control)
condition label: incubation time: 72 h
Answer with a number only, understood to be in %.

Give normalised response for the following molecule: CN(C)c1nc(N(C)C)nc(N(C)C)n1 [Altretamine] (100 nM)
106

Give normalised response for the following molecule: CCn1c(-c2nonc2N)nc2cnc(Oc3cccc(NC(=O)c4ccc(OCCN5CCOCC5)cc4)c3)cc21 (100 nM)
98.4

Give normalised response for the following molecule: Cc1[nH]c2ccccc2c1CCNCc1ccc(/C=C/C(=O)NO)cc1 [Panobinostat] (100 nM)
-4.89

Give normalised response for the following molecule: CNC(=O)c1ccc(N2C(=S)N(c3ccc(C#N)c(C(F)(F)F)c3)C(=O)C23CCC3)cc1F [RD162] (1000 nM)
102

Give normalised response for the following molecule: CCc1c2c(nc3ccc(OC(=O)N4CCC(N5CCCCC5)CC4)cc13)-c1cc3c(c(=O)n1C2)COC(=O)[C@]3(O)CC [Irinotecan] (1000 nM)
29.8

Give normalised response for the following molecule: O=C(Nc1ccncc1)C(=O)c1cn(Cc2ccc(Cl)cc2)c2ccccc12 [Indibulin] (1000 nM)
96.3

Give normalised response for the following molecule: CNC(=O)c1ccc(N2C(=S)N(c3ccc(C#N)c(C(F)(F)F)c3)C(=O)C23CCC3)cc1F [RD162] (100 nM)
87

Give normalised response for the following molecule: Cc1[nH]c2ccccc2c1CCNCc1ccc(/C=C/C(=O)NO)cc1 [Panobinostat] (10 nM)
83.1

Give normalised response for the following molecule: COc1cc(OC2CCN(C)CC2)ccc1Nc1ncc2c(n1)n(C1CCCC1)c(=O)n2C [AZ 3146] (100 nM)
89.9

Give normalised response for the following molecule: O=P1(N(CCCl)CCCl)NCCCO1 (stereo unspecified) [Cyclophosphamide] (4000 nM)
104

Give normalised response for the following molecule: CN(C)CCOc1ccc(/C(=C(/CCCl)c2ccccc2)c2ccccc2)cc1 [Toremifene] (1000 nM)
89.1

Give normalised response for the following molecule: CNC(=O)c1ccc(N2C(=S)N(c3ccc(C#N)c(C(F)(F)F)c3)C(=O)C2(C)C)cc1F [Enzalutamide] (1000 nM)
65.4

Give normalised response for the following molecule: Cc1cc(Nc2cc(CN3CCOCC3)c3nc(C)c(Cc4ccc(Cl)cc4F)n3n2)n[nH]1 [Gandotinib] (100 nM)
103

Give normalised response for the following molecule: CN(C)c1nc(N(C)C)nc(N(C)C)n1 [Altretamine] (10000 nM)
91

Give normalised response for the following molecule: N#Cc1ccc(COC[C@H]2O[C@@H](n3c(NCc4ccc(Cl)c(Cl)c4)nc4c(N)ncnc43)[C@H](O)[C@@H]2O)cc1 (10000 nM)
95.2

Give normalised response for the following molecule: CC(C)C[C@@H](C(=O)N[C@H](C(=O)OC1CCCC1)c1ccccc1)[C@H](O)C(=O)NO [Tosedostat] (10000 nM)
54.2

----------
System: MDA-MB-436
measurement protocol: normalised response (% of control), CellTiter-Glo; higher = more viable cells (100 = DMSO, 0 = benzethonium chloride kill control)
condition label: incubation time: 72 h
value type: normalised response (%)
Answer with a number only, understood to be in %.

Give normalised response for the following molecule: Cc1[nH]c2ccccc2c1CCNCc1ccc(/C=C/C(=O)NO)cc1 [Panobinostat] (1000 nM)
30.2

Give normalised response for the following molecule: C=C1C[C@@H]2[C@H](CC[C@]3(C)C(=O)CC[C@@H]23)[C@@]2(C)C=CC(=O)C=C12 [Exemestane] (10000 nM)
88

Give normalised response for the following molecule: O=C(Nc1cccnc1)N1CCC(Cc2cccc(Oc3ccc(C(F)(F)F)cn3)c2)CC1 [PF-3845] (10000 nM)
72.6

Give normalised response for the following molecule: c1ccc2c(CCNc3ccc(Nc4ccncc4)cc3)c[nH]c2c1 [Serdemetan] (10000 nM)
44.8

Give normalised response for the following molecule: COc1cc(O)c2c(c1)/C=C/C[C@H](O)[C@H](O)C(=O)/C=C\C[C@H](C)OC2=O [(5Z)-7-Oxozeaenol] (10000 nM)
25.1

Give normalised response for the following molecule: CNC(=O)c1ccc(N2C(=S)N(c3ccc(C#N)c(C(F)(F)F)c3)C(=O)C2(C)C)cc1F [Enzalutamide] (10000 nM)
97.2

----------
Tested on: CAL-51
condition label: 72 h
value type: EC50, CellTiter-Glo (µM)
Answer with a number only, understood to be in µM.

Give EC50, CellTiter-Glo for the following molecule: COc1cc(O)c2c(c1)/C=C/C[C@H](O)[C@H](O)C(=O)/C=C\C[C@H](C)OC2=O [(5Z)-7-Oxozeaenol]
3.77

Give EC50, CellTiter-Glo for the following molecule: CCn1c(-c2nonc2N)nc2cnc(Oc3cccc(NC(=O)c4ccc(OCCN5CCOCC5)cc4)c3)cc21
4.64

----------
Tested on: CAL-120
measurement protocol: normalised viability (% of control), CellTiter-Blue; higher = more viable cells (about 100 = DMSO control)
condition label: 10 nM; incubation time: 72 h
Give normalised viability for every item shown.
Answer with a number only, understood to be in %.

# return normalised viability for CN(C)CCOc1ccc(/C(=C(/CCCl)c2ccccc2)c2ccccc2)cc1 [Toremifene] , test system: CAL-120
85.2

# return normalised viability for N#Cc1ccc(COC[C@H]2O[C@@H](n3c(NCc4ccc(Cl)c(Cl)c4)nc4c(N)ncnc43)[C@H](O)[C@@H]2O)cc1 , test system: CAL-120
103

# return normalised viability for COc1cc2/c(=N/c3ccc(Br)cc3F)nc[nH]c2cc1OCC1CCN(C)CC1 [Vandetanib] , test system: CAL-120
117

# return normalised viability for CN(C)c1nc(N(C)C)nc(N(C)C)n1 [Altretamine] , test system: CAL-120
88.6

# return normalised viability for COCC[n+]1c2c(n(Cc3cnccn3)c1C)C(=O)c1ccccc1C2=O [YM155] , test system: CAL-120
9.27

----------
Tested on: SK-BR-3
measurement protocol: normalised viability (% of control), CellTiter-Blue; higher = more viable cells (about 100 = DMSO control)
condition label: 10000 nM; incubation time: 72 h
value type: normalised viability (%)
Answer with a number only, understood to be in %.

# return normalised viability for COCC[n+]1c2c(n(Cc3cnccn3)c1C)C(=O)c1ccccc1C2=O , test system: SK-BR-3
0.6

# return normalised viability for CNC(=O)c1cc(Oc2ccc(NC(=O)Nc3ccc(Cl)c(C(F)(F)F)c3)c(F)c2)ccn1 , test system: SK-BR-3
72.2

# return normalised viability for C=C1C[C@@H]2[C@H](CC[C@]3(C)C(=O)CC[C@@H]23)[C@@]2(C)C=CC(=O)C=C12 , test system: SK-BR-3
79.3

# return normalised viability for COc1cc(OC2CCN(C)CC2)ccc1Nc1ncc2c(n1)n(C1CCCC1)c(=O)n2C , test system: SK-BR-3
74.5

# return normalised viability for c1ccc2c(CCNc3ccc(Nc4ccncc4)cc3)c[nH]c2c1 , test system: SK-BR-3
72.2

# return normalised viability for Nc1cc(C(F)(F)F)c(-c2cc(N3CCOCC3)nc(N3CCOCC3)n2)cn1 , test system: SK-BR-3
9.47

# return normalised viability for Cc1ccc(NC(=O)c2ccc(CN3CCN(C)CC3)cc2)cc1Nc1nc(-c2cccnc2)cs1 , test system: SK-BR-3
25.2

# return normalised viability for O=C(Nc1ccncc1)C(=O)c1cn(Cc2ccc(Cl)cc2)c2ccccc12 , test system: SK-BR-3
20.6

# return normalised viability for COc1cc2/c(=N/c3ccc(Br)cc3F)nc[nH]c2cc1OCC1CCN(C)CC1 , test system: SK-BR-3
14.3

Data credit: the supplement of paper PMC4862054
